src = patent US8173689B2

system-under-test: cytoplasmic domain of the human CSF-1R (Homo sapiens)
Construct: Recombinant protein corresponding to the cytoplasmic domain of the human CSF-1R; purchased Invitrogen Corporation, Carlsbad, Calif; PV3249
Sequence (P07333 539-972 limits assumed): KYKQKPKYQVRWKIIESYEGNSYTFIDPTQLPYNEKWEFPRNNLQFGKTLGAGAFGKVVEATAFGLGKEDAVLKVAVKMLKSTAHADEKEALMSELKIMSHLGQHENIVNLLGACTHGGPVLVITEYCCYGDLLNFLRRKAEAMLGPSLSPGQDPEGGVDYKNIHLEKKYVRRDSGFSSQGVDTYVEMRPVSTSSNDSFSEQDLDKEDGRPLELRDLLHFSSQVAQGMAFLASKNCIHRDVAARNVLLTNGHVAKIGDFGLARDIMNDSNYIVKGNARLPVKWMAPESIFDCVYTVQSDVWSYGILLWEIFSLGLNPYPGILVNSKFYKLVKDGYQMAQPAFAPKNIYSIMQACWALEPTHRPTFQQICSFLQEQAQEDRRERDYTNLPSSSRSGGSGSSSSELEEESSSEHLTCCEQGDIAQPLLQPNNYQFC
assay-overview: In vitro kinase assay for colony stimulating factor-1 receptor (AlphaScreen)
Assay type: biochemical
measurement-context: tested at about 1 μM; read-out: CSF-1R percent inhibition
assay-readout: inhibition at 1 µM (%)

                                   compound  value_unit  measured
0  CNC(=O)c1cc(Oc2ccc3nc(NCc4ccc(Cl)cc4Cl)oc3c2)ccn1 [Compound 9]           %        99
1  CNC(=O)c1cc(Oc2ccc3nc(N[C@H](C)c4ccccc4)oc3c2)ccn1 [Compound 2]           %       100
2  CNC(=O)c1cc(Oc2ccc3nc(N[C@H](C)c4cccc5ccccc45)oc3c2)ccn1 [Compound 18]           %       100

* * *

system-under-test: cytoplasmic domain of the human CSF-1R (Homo sapiens, UniProt P07333)
Construct: Recombinant protein corresponding to the cytoplasmic domain of the human CSF-1R; purchased Invitrogen Corporation, Carlsbad, Calif; PV3249
Sequence (P07333 539-972 limits assumed): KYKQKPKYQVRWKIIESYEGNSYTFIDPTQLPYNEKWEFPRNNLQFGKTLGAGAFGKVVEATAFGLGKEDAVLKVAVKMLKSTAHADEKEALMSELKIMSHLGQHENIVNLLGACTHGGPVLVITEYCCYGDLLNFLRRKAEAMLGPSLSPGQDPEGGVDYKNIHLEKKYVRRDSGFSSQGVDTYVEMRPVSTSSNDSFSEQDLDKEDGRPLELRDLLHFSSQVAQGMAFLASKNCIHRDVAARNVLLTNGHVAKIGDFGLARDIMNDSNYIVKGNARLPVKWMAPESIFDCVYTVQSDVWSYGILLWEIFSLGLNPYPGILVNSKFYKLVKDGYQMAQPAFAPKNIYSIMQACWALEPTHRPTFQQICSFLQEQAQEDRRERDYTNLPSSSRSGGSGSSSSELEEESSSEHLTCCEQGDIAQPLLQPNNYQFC
assay-overview: In vitro kinase assay for colony stimulating factor-1 receptor (AlphaScreen)
Format: biochemical
measurement-context: tested at about 1 μM; read-out: CSF-1R percent inhibition
assay-readout: inhibition at 1 µM (%)

>>> df
                                    compound  measured
 0  CNC(=O)c1cc(Oc2ccc3nc(NCc4ccccc4F)oc3c2)ccn1        99
 1  CNC(=O)c1cc(Oc2ccc3nc(NCc4ccccc4)oc3c2)ccn1       100
 2  CNC(=O)c1cc(Oc2ccc3nc(NCc4cccc(Cl)c4)oc3c2)ccn1        99
 3  CNC(=O)c1cc(Oc2ccc3nc(NC[C@@H]4C[C@H]5CC[C@@H]4C5(C)C)oc3c2)ccn1       100
 4  CNC(=O)c1cc(Oc2ccc3nc(Nc4ccccc4CN4CCOCC4)oc3c2)ccn1        98
 5  COc1cc2nccc(Oc3ccc4nc(N[C@H](C)c5ccccc5)oc4c3)c2cc1OC        99
 6  CNC(=O)c1cc(Oc2ccc3nc(N[C@H]4CCCC[C@@H]4O)sc3c2)ccn1       100
 7  CNC(=O)c1cc(Oc2ccc3nc(NC4CCCC(C)C4)oc3c2)ccn1 (centres unmarked)        99
 8  CNC(=O)c1cc(Oc2ccc3nc(N[C@@H](C)c4ccccc4)oc3c2)ccn1        94
 9  CNC(=O)c1cc(Oc2ccc3nc(Nc4ccc5c(c4)OCCO5)oc3c2)ccn1        99
10  CNC(=O)c1cc(Oc2ccc3nc(N[C@H]4C[C@H]5C[C@@H]([C@@H]4C)C5(C)C)oc3c2)ccn1        99
11  CC(=O)Nc1cc(Oc2ccc3nc(NCC4CCCCC4)oc3c2)ccn1        99
12  CC(=O)Nc1cc(Oc2ccc3nc(NCc4ccccc4Cl)oc3c2)ccn1       100
13  CNC(=O)c1cc(Oc2ccc3nc(Nc4ccc(OC)cc4OC)oc3c2)ccn1        99
14  CNC(=O)c1cc(Oc2ccc3nc(NCC4CCCCC4)oc3c2)ccn1        99
15  CNC(=O)c1cc(Oc2ccc3nc(NCc4ccc(Cl)cc4)oc3c2)ccn1        99
16  CNC(=O)c1cc(Oc2ccc3nc(NCc4ccccc4Cl)oc3c2)ccn1        99

* * *

system-under-test: full-length human CSF-1R receptor (Homo sapiens)
Construct: transfected with the full-length human CSF-1R receptor cloned in house; expressed in transfected cells; host or cells: HEK293H (Invitrogen Cat. #11631017)
assay-overview: In vitro inhibition of CSF-1R receptor tyrosine phosphorylation in transfected HEK293H cells stimulated with MCSF
Assay type: cell-based
measurement-context: HEK293-H, tested at about 1 μM; HEK293H cells; read-out: pCSF1R percent inhibition
assay-readout: inhibition at 1 µM (%)

>>> print(df.to_string())
                                   compound                         system_under_test  measured
0  CNC(=O)c1cc(Oc2ccc3nc(NCc4ccccc4Cl)oc3c2)ccn1  full-length human CSF-1R receptor (Homo sapiens)        92
1  CNC(=O)c1cc(Oc2ccc3nc(NCC4CCCCC4)oc3c2)ccn1  full-length human CSF-1R receptor (Homo sapiens)        65
2  CC(=O)Nc1cc(Oc2ccc3nc(NCC4CCCCC4)oc3c2)ccn1  full-length human CSF-1R receptor (Homo sapiens)        65
3  CNC(=O)c1cc(Oc2ccc3nc(NC4CCCC(C)C4)oc3c2)ccn1 (stereo not drawn)  full-length human CSF-1R receptor (Homo sapiens)        79
4  CNC(=O)c1cc(Oc2ccc3nc(N[C@H]4CCCC[C@@H]4O)sc3c2)ccn1  full-length human CSF-1R receptor (Homo sapiens)        98
5  CNC(=O)c1cc(Oc2ccc3nc(NCc4ccc(Cl)cc4Cl)oc3c2)ccn1  full-length human CSF-1R receptor (Homo sapiens)        75
6  CNC(=O)c1cc(Oc2ccc3nc(N[C@H](C)c4ccccc4)oc3c2)ccn1  full-length human CSF-1R receptor (Homo sapiens)        80
7  CNC(=O)c1cc(Oc2ccc3nc(NCc4cccc(Cl)c4)oc3c2)ccn1  full-length human CSF-1R receptor (Homo sapiens)        97
8  CNC(=O)c1cc(Oc2ccc3nc(Nc4ccc(OC)cc4OC)oc3c2)ccn1  full-length human CSF-1R receptor (Homo sapiens)        88

* * *

system-under-test: full-length human CSF-1R receptor (Homo sapiens, UniProt P07333)
Construct: transfected with the full-length human CSF-1R receptor cloned in house; expressed in transfected cells; host or cells: HEK293H (Invitrogen Cat. #11631017)
assay-overview: In vitro inhibition of CSF-1R receptor tyrosine phosphorylation in transfected HEK293H cells stimulated with MCSF
Format: cell-based
measurement-context: HEK293-H, tested at about 1 μM; HEK293H cells; read-out: pCSF1R percent inhibition
assay-readout: inhibition at 1 µM (%)

See these solved cases before continuing.
                            smiles_notation  value_unit  measured
0  COc1cc2nccc(Oc3ccc4nc(N[C@H](C)c5ccccc5)oc4c3)c2cc1OC           %        71
1  CNC(=O)c1cc(Oc2ccc3nc(N[C@H]4C[C@H]5C[C@@H]([C@@H]4C)C5(C)C)oc3c2)ccn1           %        75
2  CNC(=O)c1cc(Oc2ccc3nc(NCc4ccc(Cl)cc4)oc3c2)ccn1           %        96

(A) CNC(=O)c1cc(Oc2ccc3nc(N[C@@H](C)c4ccccc4)oc3c2)ccn1
(B) CNC(=O)c1cc(Oc2ccc3nc(NCc4ccccc4)oc3c2)ccn1
Please indicate which has the smaller reported inhibition at 1 µM: A , or B . Please respond with the label that marks your chosen entry. A
